Data origin: paper PMC9482650

Reported pKd by item:
biological target: GRASP, Q7Z6J2; assay: holdup assay; parameters: key: below the threshold = too weak to quantify, mostly under pKd 3.1 to 4; conditions: plain residues with an end cap or a label only (N-terminal biotin on a linker: ahx)
Sequence (Q7Z6J2 96-193): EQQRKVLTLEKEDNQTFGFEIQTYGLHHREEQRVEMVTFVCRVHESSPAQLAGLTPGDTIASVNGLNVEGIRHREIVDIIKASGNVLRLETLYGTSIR

>  <binder>
QNTDDVQTSF [ACE2, Q9BYF1]

>  <pKd>
4.29

$$$$
>  <binder>
TQKFRASTAL [FRMPD1, Q5SYB0]

>  <pKd>
4.56

$$$$
>  <binder>
TESNLQTSSC [CGN, Q9P2M7]

>  <pKd>
3.95

$$$$
>  <binder>
QDEKVKESYV [ABCA1, O95477]

>  <pKd>
3.57

$$$$
>  <binder>
QPRTWLQSPV [RTKN, Q9BST9]

>  <pKd>
3.9

$$$$
>  <binder>
HTHSYIETHV [CNKSR2, Q8WXI2]

>  <pKd>
3.47

$$$$
